Tested on: PBMC
method: 193 ssRNA 4mer-motif library screen: IL-12 (IL-12p40) production in PBMC of six donors, poly-L-Arg complexation, ELISA at 44 hours, IL-12 index and adjusted IL-12 index
Format: cell-based, human
Parameters: key: IL-12 index (ratio to 9.2sense) minus donor mean, averaged over 6 donors
experimental.context: 193 ssRNA oligonucleotide library; data from six individual donors summarized; ascending order
Label YES when Adjusted IL-12 index Mean is strictly below -0.4; otherwise label NO.

// query hey, is Adjusted IL-12 index Mean for AAAAAAACCCCAAAAAAAA (RNA, backbone not given here) [ANP-Oligo 065] lower than -0.4 or not?
// result YES

// query hey, is Adjusted IL-12 index Mean for AAAAAAAAGCUAAAAAAAA (RNA, backbone not given here) [ANP-Oligo 031] lower than -0.4 or not?
// result NO

// query hey, is Adjusted IL-12 index Mean for AAAAAAAACCUAAAAAAAA (RNA, backbone not given here) [ANP-Oligo 019] lower than -0.4 or not?
// result YES

// query hey, is Adjusted IL-12 index Mean for AAAAAAAGCUGAAAAAAAA (RNA, backbone not given here) [ANP-Oligo 120] lower than -0.4 or not?
// result NO

###

Tested on: PBMC
method: 193 ssRNA 4mer-motif library screen: IL-12 (IL-12p40) production in PBMC of six donors, poly-L-Arg complexation, ELISA at 44 hours, IL-12 index and adjusted IL-12 index
Type: cell-based, human
Set-up: key: IL-12 index (ratio to 9.2sense) minus donor mean, averaged over 6 donors
experimental.context: 193 ssRNA oligonucleotide library; data from six individual donors summarized; ascending order
Listing of entries alongside the reported Adjusted IL-12 index Mean.
Please give only the number in your answer, with no unit.

// query Dear colleague, please send me the reported Adjusted IL-12 index Mean for AAAAAAAAGCAAAAAAAAA (RNA, backbone not given here) [ANP-Oligo 008] when you can.
// result −0.61

// query Dear colleague, please send me the reported Adjusted IL-12 index Mean for AAAAAAAACCAAAAAAAAA (RNA, backbone not given here) [ANP-Oligo 005] when you can.
// result −0.62

// query Dear colleague, please send me the reported Adjusted IL-12 index Mean for AAAAAAAAGUUAAAAAAAA (RNA, backbone not given here) [ANP-Oligo 037] when you can.
// result 0.21

More entries:
// query Dear colleague, please send me the reported Adjusted IL-12 index Mean for AAAAAAAUCUGAAAAAAAA (RNA, backbone not given here) [ANP-Oligo 168] when you can.
// result 0.45

// query Dear colleague, please send me the reported Adjusted IL-12 index Mean for AAAAAAAGCCGAAAAAAAA (RNA, backbone not given here) [ANP-Oligo 114] when you can.
// result −0.58

// query Dear colleague, please send me the reported Adjusted IL-12 index Mean for AAAAAAACCCUAAAAAAAA (RNA, backbone not given here) [ANP-Oligo 067] when you can.
// result −0.3

// query Dear colleague, please send me the reported Adjusted IL-12 index Mean for AAAAAAACAGGAAAAAAAA (RNA, backbone not given here) [ANP-Oligo 057] when you can.
// result −0.6

// query Dear colleague, please send me the reported Adjusted IL-12 index Mean for AAAAAAACCGCAAAAA4AA (DNA AAAAAAACCGCAAAAAAAA; RNA, backbone not given here) [ANP-Oligo 068] when you can.
// result −0.56

// query Dear colleague, please send me the reported Adjusted IL-12 index Mean for AAAAAAAACUAAAAAAAAA (RNA, backbone not given here) [ANP-Oligo 007] when you can.
// result −0.56

// query Dear colleague, please send me the reported Adjusted IL-12 index Mean for AAAAAAAACGUAAAAAAAA (RNA, backbone not given here) [ANP-Oligo 022] when you can.
// result 0.02

###

System: PBMC
method: 193 ssRNA 4mer-motif library screen: IL-12 (IL-12p40) production in PBMC of six donors, poly-L-Arg complexation, ELISA at 44 hours, IL-12 index and adjusted IL-12 index
Format: cell-based, human
Parameters: key: IL-12 index (ratio to 9.2sense) minus donor mean, averaged over 6 donors
experimental.context: 193 ssRNA oligonucleotide library; data from six individual donors summarized; ascending order
Label yes (1) when Adjusted IL-12 index Mean is strictly below -0.5; otherwise label no (0).

Illustrative cases are given below, each with its answer.
// query hey, is Adjusted IL-12 index Mean for AAAAAAAGAGUAAAAAAAA (RNA, backbone not given here) [ANP-Oligo 106] lower than -0.5 or not?
// result no (0)

// query hey, is Adjusted IL-12 index Mean for AAAAAAACAGCAAAAAAAA (RNA, backbone not given here) [ANP-Oligo 056] lower than -0.5 or not?
// result yes (1)

// query hey, is Adjusted IL-12 index Mean for AAAAAAAGACUAAAAAAAA (RNA, backbone not given here) [ANP-Oligo 103] lower than -0.5 or not?
// result no (0)

// query hey, is Adjusted IL-12 index Mean for AAAAAAAGGCUAAAAAAAA (RNA, backbone not given here) [ANP-Oligo 127] lower than -0.5 or not?
// result no (0)

// query hey, is Adjusted IL-12 index Mean for AAAAAAAGGCGAAAAAAAA (RNA, backbone not given here) [ANP-Oligo 126] lower than -0.5 or not?
// result yes (1)

// query hey, is Adjusted IL-12 index Mean for AAAAAAAUAUUAAAAAAAA (RNA, backbone not given here) [ANP-Oligo 157] lower than -0.5 or not?
// result no (0)

// query hey, is Adjusted IL-12 index Mean for AAAAAAAGGACAAAAAAAA (RNA, backbone not given here) [ANP-Oligo 122] lower than -0.5 or not?
// result no (0)

// query hey, is Adjusted IL-12 index Mean for AAAAAAACGGGAAAAAAAA (RNA, backbone not given here) [ANP-Oligo 081] lower than -0.5 or not?
// result yes (1)

// query hey, is Adjusted IL-12 index Mean for AAAAAAAUUGUAAAAAAAA (RNA, backbone not given here) [ANP-Oligo 190] lower than -0.5 or not?
// result no (0)

// query hey, is Adjusted IL-12 index Mean for AAAAAAAGCGGAAAAAAAA (RNA, backbone not given here) [ANP-Oligo 117] lower than -0.5 or not?
// result yes (1)

More entries:
// query hey, is Adjusted IL-12 index Mean for AAAAAAAUGACAAAAAAAA (RNA, backbone not given here) [ANP-Oligo 170] lower than -0.5 or not?
// result no (0)

// query hey, is Adjusted IL-12 index Mean for AAAAAAAUUGGAAAAAAAA (RNA, backbone not given here) [ANP-Oligo 189] lower than -0.5 or not?
// result no (0)

// query hey, is Adjusted IL-12 index Mean for AAAAAAAAUCAAAAAAAAA (RNA, backbone not given here) [ANP-Oligo 011] lower than -0.5 or not?
// result no (0)

// query hey, is Adjusted IL-12 index Mean for AAAAAAACAUCAAAAAAAA (RNA, backbone not given here) [ANP-Oligo 059] lower than -0.5 or not?
// result no (0)

// query hey, is Adjusted IL-12 index Mean for AAAAAAAAUCGAAAAAAAA (RNA, backbone not given here) [ANP-Oligo 042] lower than -0.5 or not?
// result yes (1)

// query hey, is Adjusted IL-12 index Mean for AAAAAAACACGAAAAAAAA (RNA, backbone not given here) [ANP-Oligo 054] lower than -0.5 or not?
// result yes (1)

###

Tested on: PBMC
method: 193 ssRNA 4mer-motif library screen: IL-12 (IL-12p40) production in PBMC of six donors, poly-L-Arg complexation, ELISA at 44 hours, IL-12 index and adjusted IL-12 index
Type: cell-based, human
Set-up: key: IL-12 index (ratio to 9.2sense) minus donor mean, averaged over 6 donors
experimental.context: 193 ssRNA oligonucleotide library; data from six individual donors summarized; ascending order
measurement.kind: Adjusted IL-12 index Mean
Please give only the number in your answer, with no unit.

// query Dear colleague, please send me the reported Adjusted IL-12 index Mean for AAAAAAAUCGGAAAAAAAA (RNA, backbone not given here) [ANP-Oligo 165] when you can.
// result −0.26

More entries:
// query Dear colleague, please send me the reported Adjusted IL-12 index Mean for AAAAAAACUCUAAAAAAAA (RNA, backbone not given here) [ANP-Oligo 091] when you can.
// result −0.33

// query Dear colleague, please send me the reported Adjusted IL-12 index Mean for AAAAAAAGAGGAAAAAAAA (RNA, backbone not given here) [ANP-Oligo 105] when you can.
// result −0.62

// query Dear colleague, please send me the reported Adjusted IL-12 index Mean for AAAAAAAUUCCAAAAAAAA (RNA, backbone not given here) [ANP-Oligo 185] when you can.
// result −0.08

// query Dear colleague, please send me the reported Adjusted IL-12 index Mean for AAAAAAAUCACAAAAAAAA (RNA, backbone not given here) [ANP-Oligo 158] when you can.
// result −0.39

// query Dear colleague, please send me the reported Adjusted IL-12 index Mean for AAAAAAACACUAAAAAAAA (RNA, backbone not given here) [ANP-Oligo 055] when you can.
// result −0.53

// query Dear colleague, please send me the reported Adjusted IL-12 index Mean for AAAAAAACGUUAAAAAAAA (RNA, backbone not given here) [ANP-Oligo 085] when you can.
// result 0.57

// query Dear colleague, please send me the reported Adjusted IL-12 index Mean for AAAAAAAUGCCAAAAAAAA (RNA, backbone not given here) [ANP-Oligo 173] when you can.
// result 1.22

// query Dear colleague, please send me the reported Adjusted IL-12 index Mean for AAAAAAAUACUAAAAAAAA (RNA, backbone not given here) [ANP-Oligo 151] when you can.
// result 0.3

// query Dear colleague, please send me the reported Adjusted IL-12 index Mean for AAAAAAAUCAGAAAAAAAA (RNA, backbone not given here) [ANP-Oligo 159] when you can.
// result −0.28

// query Dear colleague, please send me the reported Adjusted IL-12 index Mean for AAAAAAACAAGAAAAAAAA (RNA, backbone not given here) [ANP-Oligo 051] when you can.
// result −0.66

// query Dear colleague, please send me the reported Adjusted IL-12 index Mean for AAAAAAAGCAGAAAAAAAA (RNA, backbone not given here) [ANP-Oligo 111] when you can.
// result −0.32

// query Dear colleague, please send me the reported Adjusted IL-12 index Mean for AAAAAAAAUUCAAAAAAAA (RNA, backbone not given here) [ANP-Oligo 047] when you can.
// result −0.45

// query Dear colleague, please send me the reported Adjusted IL-12 index Mean for AAAAAAAACGGAAAAAAAA (RNA, backbone not given here) [ANP-Oligo 021] when you can.
// result −0.63

// query Dear colleague, please send me the reported Adjusted IL-12 index Mean for AAAAAAAGAAGAAAAAAAA (RNA, backbone not given here) [ANP-Oligo 099] when you can.
// result −0.61

// query Dear colleague, please send me the reported Adjusted IL-12 index Mean for AAAAAAACCGGAAAAAAAA (RNA, backbone not given here) [ANP-Oligo 069] when you can.
// result −0.64

The values you see were collected from patent US8815503B2.
